Test system: CAKI-1
ASSAY_COMMENT: NCI tumour cell line growth inhibition, 48 h
Activity calls are given as the source filed them. No stated cut-off is given here; in the data, active = GI50 up to about 1.1 µM and inactive = higher.
Respond with a class label; see Yes (active), No (inactive)

Please review the following examples before continuing.
COMPOUND	TGT	ANSWER_LABEL
Cn1c(=O)c2nc(CCCCc3nc4c(=O)n(C)c(=S)n(C)c4[nH]3)[nH]c2n(C)c1=S	CAKI-1	No
NC(=O)c1csc(C2CCC(CO)O2)n1 (configuration not stated)	CAKI-1	No
Nc1nnc(-c2ccco2)c(-c2ccco2)n1	CAKI-1	No
COC(=O)C1=C(O)C(C(=O)OC)[C@@]2(O)[C@@H](C(=O)OC)C(c3ccc(OC(=O)/C(=C/c4ccc(Cl)cc4)c4ccc(Cl)cc4)cc3)C[C@@H]1[C@@H]2C(=O)OC (some centres not stated)	CAKI-1	No

Okay, next one:
GET /call?item= `CCN(CC)CC[n+]1ccc2c(C)c3[nH]c4ccccc4c3c(C)c2c1` returns the recorded outcome of this test. Yes

====

Tested on: SF-295
ASSAY_COMMENT: NCI tumour cell line growth inhibition, 48 h
Active and inactive are the calls of the source. Cut-off read from the data, not from the text of the source: active = GI50 up to about 1.1 µM and inactive = higher.
QUANTITY_NAME: GI50

Given `NC(=O)NNC(=O)NC12CC3CC(CC(C3)C1)C2` , state its recorded GI50. > 100 µM (inactive)

====

Test system: OVCAR-5
ASSAY_COMMENT: NCI tumour cell line growth inhibition, 48 h
Active and inactive are the calls of the source. No stated cut-off is given here; in the data, active = GI50 up to about 1.1 µM and inactive = higher.
QUANTITY_NAME: GI50

// lookup GI50 for `Cc1ccccc1NC(=O)Cc1csc(N/N=C2\NC(=O)/C(=C/c3cccc([N+](=O)[O-])c3)S2)n1` 22.6 µM (inactive)

Repeat with CCOC(=O)NNC(=O)C1CSC(c2ccccc2)N1C(C)=O (stereo unspecified) > 100 µM (inactive)

Field entry: `COc1ccc(/C=C/c2cc(OC)cc(OC)c2)cc1` 14 µM (inactive)

How about `Nc1cccc(Nc2nc3ccccc3nc2NS(=O)(=O)c2ccccc2)c1` ? 30.3 µM (inactive)

What would you report for O=NN1C(c2ccccc2)CCCC1c1ccccc1 (stereo unspecified) ? > 100 µM (inactive)

Same question for `COc1ccc2[nH]cc(CCNC(=O)[C@H](Cc3ccc(O)cc3)NC(=O)[C@@H](NCC(F)(F)F)C(C)C)c2c1` please. > 100 µM (inactive)

====

Listed next: entries and their corresponding GI50.
Tested on: PC-3
ASSAY_COMMENT: NCI tumour cell line growth inhibition, 48 h
Active and inactive are the calls of the source. No stated cut-off is given here; in the data, active = GI50 up to about 1.1 µM and inactive = higher.

Here is how some compounds turned out for GI50.
COMPOUND	TGT	GI50
CCOC(=O)CC(=O)CSc1c(-c2ccccc2)c(=O)n(-c2ccccc2)c(=S)n1-c1ccccc1	PC-3	> 100 µM (inactive)
Cc1cc(OC(=O)Nc2ccc(Cl)cc2)ccc1C(=S)Nc1ccccc1	PC-3	> 100 µM (inactive)
CN/N=C(\C)C(CN(C)C)C(c1ccccc1)c1c(O)c2ccccc2oc1=O (stereo unspecified)	PC-3	> 100 µM (inactive)
Cc1ccc(S(=O)(=O)NCc2cccc([N+](=O)[O-])c2)cc1	PC-3	> 100 µM (inactive)
CC1C(c2ccc3c(c2)OCO3)c2cc3c(cc2OC1N1CCOCC1)OCO3 (stereo unspecified)	PC-3	25.9 µM (inactive)
N#CCCN(CCC#N)c1ccc(/C=C2\SC(=S)NC2=O)cc1Br	PC-3	> 100 µM (inactive)
CN(C)C(=O)C1CCN(Cc2c[nH]c3ccccc23)CC1	PC-3	> 100 µM (inactive)
CCc1cccc(CC)c1Nc1nc(-c2ccccc2-c2ccccc2)cs1	PC-3	53.2 µM (inactive)

Which measured GI50 value corresponds to `COc1cc(O)c2c(=O)cc(-c3ccc(O)cc3O)oc2c1CC=C(C)C` ? 12.9 µM (inactive)

Try this compound next: CC1OC2(CC(OCc3ccccc3)C1OCc1ccccc1)OCCO2 (stereo unspecified) 59.8 µM (inactive)

Check Cc1ccc2nc3n(c2c1)C(c1c(F)cccc1F)SC3 (stereo unspecified) too. > 100 µM (inactive)

Please answer likewise for `CC(C)C[C@H](NC(=O)CCc1cccc2ccccc12)B(O)O` 3.9 µM (inactive)

Entry OCC1C2CCC3(OCCO3)C12 (stereo unspecified) please > 100 µM (inactive)

Same lookup for `Cc1[nH]c2ccccc2c1C1=CC(=O)N(c2ccccc2)C1=O` , please. 11.9 µM (inactive)
